All figures here come from patent US20060128769A1.

# measurement-protocol: logP determination by HPLC on a reversed-phase column (C 18), EEC Directive 79/831 Annex V.A8
# Format: physicochemical
# assay-conditions: reversed-phase HPLC column (C 18); pH 2.3, HPLC reversed-phase C 18, 43° C., 0.1% aqueous phosphoric acid/acetonitrile; read-out: logP (pH 2.3)
endpoint: chromatographic logP

CC(=O)N(C(=O)c1sc(C)nc1C(F)F)c1ccccc1-c1ccc(Br)cc1 [Example 1]: 3.61
Cc1nc(C(F)F)c(C(=O)Nc2ccccc2-c2ccc(Cl)cc2)s1 [II-2]: 3.26
Cc1nc(C(F)F)c(C(=O)Nc2ccccc2-c2ccc(Br)cc2)s1 [II-1]: 3.34
Cc1nc(C(F)F)c(C(=O)N(C)c2ccccc2-c2ccc(Cl)cc2)s1 [Example 2]: 3.34

* * *

# measurement-protocol: logP determination by HPLC on a reversed-phase column (C 18), EEC Directive 79/831 Annex V.A8
# Type: physicochemical
# assay-conditions: reversed-phase HPLC column (C 18); Table 1; acidic range pH 2.3, HPLC reversed-phase C 18, 43° C.; read-out: logP
endpoint: chromatographic logP

Cc1nc(C(F)F)c(C(=O)N(C(=O)c2sc(C)nc2C(F)F)c2ccccc2-c2cc(Cl)cc(Cl)c2)s1: 4.28
Cc1nc(C(F)F)c(C(=O)N(C)c2ccccc2-c2ccc(Br)cc2)s1: 3.44
